Test Protocol: protein stability index of a GFP-peptide fusion (GPS, HEK-293T) (PSI 1-6); higher = more stable;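 note: 24-mer peptide tiles fused after GFP, lentivirally expressed, FACS-sorted into six equal bins by GFP/DsRed ratio, decoded by Illumina sequencing, PSI is the read-weighted mean bin number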
Assay Conditions: treatment: DMSO; c terminus: native
Answer each item with its documented protein stability index.
Numbers only.

Req: Return protein stability index for the following sequence: LIWSYPAGSLTFPVRPFFYTGHR [TRIM43]
Resp: 1.97

Req: Entry RHCPLPQATFWGLVTPRSWSCHT [SOAT2] needs its protein stability index filled in; supply it.
Resp: 2.55

Req: Look up protein stability index of PDTRHPCSLGSSLVADYSDSESE [YJU2B] and report it.
Resp: 5.39

Hi! Can you tell me protein stability index for each of these sequences?
1. TSGNPNGRYGSGYLLASTPESEL [SLC6A17]
2. YSLRNKEFKSALCKIVRRTISLL [OR10K2]
3. SLLQPVTPLGTSRWRKISAALPY [NCF4]

Resp:
1: 4.62; 2: 2.96; 3: 2.54

Please give protein stability index, item by item, for the list that follows.
1. YAKLAAVAVFFIMLIVYVRFWWL [SEC22B]
2. SVTRSCLLEEEEESGEEAAEAME [POP5]
3. LKFDNSYSLWRSKSVYYRVYYTR [ACBD3]
4. LADKELVHMISWAKKIPGMRGNA [ESR2]
5. VDISVPPTTDGQKPNKLQCCQNL [RAB11B]
6. AIDRNYVPGKSLAVSCPGWSAVA [SNX12]

Resp:
[2.52, 5.52, 2.52, 2.95, 4.77, 2.73]
